assay: Drug concentration in plasma of Sprague-Dawley rat at 15 mg/kg, IG measured after 4 hrs; type: ADME, organism-based; conditions: po
quantity kind: concentration at 4 h (ng/mL)
Answer format: numeric, ng/mL implied, no suffix.

Return concentration at 4 h for the following compound: O=c1ccoc(/C=C/c2ccc(O)c(O)c2)c1O
0.95

###

assay: Drug concentration in hippocampus of Sprague-Dawley rat at 15 mg/kg, IG measured after 1 hrs; type: ADME, organism-based; settings: po, read-out: Drug uptake
quantity kind: concentration at 1 h (ng/mL)
Give the number; ng/mL is assumed, so skip it.

Kindly indicate its recorded concentration at 1 h. Item: O=c1ccoc(/C=C/c2ccc(O)c(O)c2)c1O
8.72

###

molecular target: Amyloid-beta precursor protein (Homo sapiens); assay: Inhibition of amyloid beta (1 to 42) (unknown origin) self aggregation assessed as disaggregation
quantity kind: IC50 (µM)
Numbers only; they are read as µM.

Look up Amyloid-beta precursor protein (Homo sapiens) data: IC50 of O=c1ccoc(/C=C/c2ccc([N+](=O)[O-])cc2)c1O , then report it.
26.3

###

biological target: Amyloid-beta precursor protein (Homo sapiens, UniProt P05067); assay: Inhibition of amyloid beta (1 to 42) (unknown origin) self aggregation assessed as disaggregation relative to control; design: concentration or dose not given beside the values; conditions: concentration not given here
Sequence (P05067 whole entry): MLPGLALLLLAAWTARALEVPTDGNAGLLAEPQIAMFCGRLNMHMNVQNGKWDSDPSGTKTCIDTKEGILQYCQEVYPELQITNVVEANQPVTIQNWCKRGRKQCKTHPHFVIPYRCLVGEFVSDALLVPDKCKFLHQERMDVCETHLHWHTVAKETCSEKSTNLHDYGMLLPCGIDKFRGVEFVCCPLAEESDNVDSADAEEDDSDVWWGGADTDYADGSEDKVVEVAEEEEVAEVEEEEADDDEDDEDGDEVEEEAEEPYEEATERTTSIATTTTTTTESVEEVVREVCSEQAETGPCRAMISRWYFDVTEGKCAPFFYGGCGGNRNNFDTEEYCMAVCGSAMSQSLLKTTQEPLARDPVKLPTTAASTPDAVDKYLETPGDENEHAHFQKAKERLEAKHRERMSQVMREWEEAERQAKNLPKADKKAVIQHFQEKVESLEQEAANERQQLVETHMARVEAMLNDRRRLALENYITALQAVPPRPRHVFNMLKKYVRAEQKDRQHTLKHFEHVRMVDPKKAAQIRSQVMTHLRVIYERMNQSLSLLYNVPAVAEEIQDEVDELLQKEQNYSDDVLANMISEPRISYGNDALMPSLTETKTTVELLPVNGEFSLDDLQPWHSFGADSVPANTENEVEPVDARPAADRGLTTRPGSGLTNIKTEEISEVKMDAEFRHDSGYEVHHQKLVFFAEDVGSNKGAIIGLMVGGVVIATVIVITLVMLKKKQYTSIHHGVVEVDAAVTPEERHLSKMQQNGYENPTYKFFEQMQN
inhibition vs 40%: at or above is YES, below is NO.

| structure as smiles | label value |
| --- | --- |
| COc1cccc(/C=C/c2occc(=O)c2O)c1 | YES |
| COc1ccc(/C=C/c2occc(=O)c2O)cc1O | YES |
| O=c1ccoc(/C=C/c2ccc(O)c(F)c2)c1O | NO |
| CN(C)c1ccc(/C=C/c2occc(=O)c2O)cc1 | YES |

Could you now look at the following compound, please?
Could you verify whether the entry COc1cc(/C=C/c2occc(=O)c2O)ccc1O shows inhibition of no less than 40%?
YES

###

test system: BV-2; assay: Antiinflammatory activity in LPS induced mouse BV-2 cells decrease in release of […] at 5 uM by […] (reference value: 100%); assay type: functional
quantity kind: Nitric oxide release (% of LPS control) (%)
Write down the numeric answer in % and omit the unit.

// below: answered molecules
| structure as smiles | target under test | unit label | reported measurement |
| --- | --- | --- | --- |
| COc1ccccc1/C=C/c1occc(=O)c1O | BV-2 | % | 77.3 |
| O=c1ccoc(/C=C/c2ccc(F)c(O)c2)c1O | BV-2 | % | 93.87 |
| O=c1ccoc(/C=C/c2ccc(Cl)cc2)c1O | BV-2 | % | 97.73 |
| O=c1ccoc(/C=C/c2ccc(N3CCCCC3)cc2)c1O | BV-2 | % | 100.49 |

# context switch: different molecule, same Nitric oxide release (% of LPS control)
Tell us which Nitric oxide release (% of LPS control) value is on record for COc1ccc(/C=C/c2occc(=O)c2O)cc1O
90.08

###

molecular target: Amyloid-beta precursor protein (Homo sapiens); assay: Inhibition of amyloid beta (1 to 42) (unknown origin) self aggregation at 50 uM relative to control
quantity kind: inhibition (%)
Just the number in %, nothing appended.

Some compounds with recorded inhibition:
| structure as smiles | reported measurement |
| --- | --- |
| O=c1ccoc(/C=C/c2ccccc2Cl)c1O | 27.7 |
| N#Cc1ccc(/C=C/c2occc(=O)c2O)cc1 | 16.8 |
| COc1ccccc1/C=C/c1occc(=O)c1O | 23.5 |

Give reported inhibition value for O=c1ccoc(/C=C/c2cccc(F)c2)c1O
24.2

Provide only the value of recorded inhibition for O=c1ccoc(/C=C/c2ccc(N3CCCCC3)cc2)c1O
59.6

The reported measurements were obtained from ChEMBL document CHEMBL5325414.
